# assayComment: physchem
# conditionParameters: organic solvent or mixture, thermodynamic from solid, Approximate solubility, MeOH, RT
endpointLabel: solubility

• C[C@@H]1CN(Cc2cccc(OC(F)(F)F)c2)CCN1C(=O)Oc1cncc(C(N)=O)c1 [Form A] = > 23 mg/mL

====

# assayComment: Form A solubility study in FaSSIF-v2 and FeSSIF-v2 at 37° C.
# Type: physicochemical
# conditionParameters: FeSSIF-v2, thermodynamic from solid; FeSSIF (pH 5.8), 37° C., 24 hr, final pH 6.0
# Description: Solubility was evaluated at 2 hr and 24 hr for Form A in FaSSIF-v2 and FeSSIF-v2 at 37° C. Approximately 40 mg of Form A sample was added in 2.0 mL of corresponding bio-medium to form a suspension, followed by shaking at 500 rpm at 37° C. After 2 hr and 24 hr, the supernatants were isolated by centrifugation (7000 rpm for 5 min) followed by filtration through […] PTFE membrane and were tested by HPLC concentration and pH. The residual solids were characterized by XRPD.
endpointLabel: solubility at 24 h (µg/mL)

• C[C@@H]1CN(Cc2cccc(OC(F)(F)F)c2)CCN1C(=O)Oc1cncc(C(N)=O)c1 [Form A] = 1100

====

# assayComment: pKa detection by Sirius T3
# Format: physicochemical
# conditionParameters: Sirius T3, range 2.0 to 12.0, in triplicate; read-out: Measured pKa value
# Description: A summary of baseline solid state characterization results of crystalline (R)-5-carbamoylpyridin-3-yl-2-methyl-4-(3-(trifluoromethoxy)benzyl)piperazine-1-carboxylate Form A, including pKa, partition coefficient (log D7.4) measurement and 2-hrs equilibrium solubility in FaSSIF and FeSSIF (version 2) are provided herein. […] Log D7.4 was measured with the solvent system of pH 7.4 phosphate buffer and n-octanol by shake-flask method. […]
endpointLabel: pKa

- C[C@@H]1CN(Cc2cccc(OC(F)(F)F)c2)CCN1C(=O)Oc1cncc(C(N)=O)c1 [Form A]: 5.79

====

# assayComment: physchem
# conditionParameters: organic solvent or mixture, thermodynamic from solid, Approximate solubility, DMSO, RT
endpointLabel: solubility

• C[C@@H]1CN(Cc2cccc(OC(F)(F)F)c2)CCN1C(=O)Oc1cncc(C(N)=O)c1 [Form A] = > 20 mg/mL

====

# assayComment: Solubility of Form A in physiologically relevant media (37° C.)
# Assay type: physicochemical
# conditionParameters: phosphate buffer pH 2.5, aqueous buffer, thermodynamic from solid, pH 2.5 Phosphate buffer, final measured pH 3.44
endpointLabel: solubility (µg/mL)

* C[C@@H]1CN(Cc2cccc(OC(F)(F)F)c2)CCN1C(=O)Oc1cncc(C(N)=O)c1 [Form A] | 4330

====

# assayComment: physchem
# conditionParameters: organic solvent or mixture, thermodynamic from solid, Approximate solubility, n-heptane, RT
endpointLabel: solubility

- C[C@@H]1CN(Cc2cccc(OC(F)(F)F)c2)CCN1C(=O)Oc1cncc(C(N)=O)c1 [Form A]: < 900 µg/mL

====

# assayComment: Solubility of Form A in physiologically relevant media (37° C.)
# Assay type: physicochemical
# conditionParameters: phosphate buffer pH 8.0, pH 8.1, aqueous buffer, thermodynamic from solid, pH 8.0 Phosphate buffer, final measured pH 8.10
endpointLabel: solubility (µg/mL)

• C[C@@H]1CN(Cc2cccc(OC(F)(F)F)c2)CCN1C(=O)Oc1cncc(C(N)=O)c1 [Form A] = 5
